Target: T1, recombinant HMG1 purified from E. coli as a calmodulin binding protein (CBP) fusion protein (human, UniProt A9RA84 1-215 (Papio anubis entry))
T1 construct: also called rHMG1; rHMGB1
T1 sequence: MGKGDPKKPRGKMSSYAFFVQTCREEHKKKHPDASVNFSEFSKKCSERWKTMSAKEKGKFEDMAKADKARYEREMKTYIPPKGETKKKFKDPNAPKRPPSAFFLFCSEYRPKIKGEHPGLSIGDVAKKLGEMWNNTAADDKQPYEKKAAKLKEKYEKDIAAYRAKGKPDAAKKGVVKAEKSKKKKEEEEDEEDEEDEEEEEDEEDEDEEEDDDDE
Assay: BIAcore, mAb immobilized, HMG1 injected, steady-state model
Assay readout: Kd (nM)
Answers are plain numbers, in nM.

// known answers, use as guide
>>> observed("anti-HMG1 antibody G35 (antibody, V domains shown) VH: EVQLLESGGGLVQPGGSLRLSCAASGFTFSWYKMVWVRQAPGKGLEWVSSIVPSGGITIYADSVKGRFTISRDNSKNTLYLQMNSLRAEDTAVYYCARVQQWLGRPYFDYWGQGTLVTVSS VL: DIQMTQSPLSLPVTPGEPASISCRSSQSLLHGNGYNYLDWYLQRPGQSPQLLIYSGSNRASGVPDRFSGSGSGTDFTLKISRVEAEDVGVYYCMQSLQSRTFGQGTKVEIK")
242
>>> observed("anti-HMG1 antibody G12 (antibody, V domains shown) VH: EVQLLESGGGLVQPGGSLRLSCAASGFTFSYYMMTWVRQAPGKGLEWVSSISPSGGYTIYADSAKGRFTISRDNSKNTLYLQMNSLRAEDTAVYYCARALSTGSFWDYWGQGTLVTVSS VL: DIQMTQSPGTLSLSPGERATLSCRASESLTSTYVAWYQHKPGQAPRLLIHGGSTRATGIPVRFSGSGSGTDFTLTIATLEPEDFAVYYCQQYGSSPYTFGQGTKLEIK")
73
>>> observed("anti-HMG1 antibody S14 (antibody, V domains shown) VH: EVQLLESGGGLVQPGGSLRLSCAASGFTFSWYETGWVRQAPGKGLEWVSGISPSGGYTQYADSVKGRFTISRDNSKNTLYLQMNSLRAEDTAVYYCARSGVGATKIFDYWGQGTLVTVSS VL: DIQMTQSPSSLSASVGDRVTIICRANERINTYLNWYQQKPGKAPKLLISGTSSLESGVPSRFSGSGSGTEFTLSISSLQPEDFASYYCQQSYSSPYTFGQGTNLEIR")
205
>>> observed("anti-HMG1 antibody G9 (antibody, V domains shown) VH: EVQLLESGGGLVQPGGSLRLSCAASGFTFSSYDMFWVRQAPGKGLEWVSRISPSGGYTYYADSVKGRFTISRDNSKNTLYLQMNSLRAEDTAVYYCARLRYFDSRGYAFDIWGQGTMVTVSS VL: DIQMTQSPGTLSLSPGERATLSCRASQSVRSSYLAWYQQKPGQAPRLLIYGASTRATGIPDRFSGSGSGTDFTLTISRLEPEDFAVYYCQQYGTSRWTFGQGTKVEIK")
125

Value of Kd reported for the binder anti-HMG1 antibody G34 (antibody, V domains shown) VH: EVQLLESGGGLVQPGGSLRLSCAASGFTFSHYMMGWVRQAPGKGLEWVSRISPSGGGTVYADSVKGRFTISRDNSKNTLYLQMNSLRAEDTAVYYCARGGNWNYISYYYYYLDVWGKGTTVTVSS VL: DIQMTQSPSSLSASVGDRVAITCRASQSIDTYLNWYQQKPGKAPKLLIYAASKLEDGVPSRFSGSGTGTDFTLTIRSLQPEDFASYFCQQSYSSPGITFGPGTKVEIK is 67
